- Test system: KM12 colon
- experimental protocol: NCI-60 one-dose screen, 48 h (100 = growth as untreated, 0 = no growth, -100 = all killed)
- measurement conditions: 10 µM unless noted
Compounds without any hit were thinned out: in the full panel of roughly 83,000, 20% have a hit.
assay endpoint: growth (%)
Just the number please, in %, no unit attached.

[
  {
    "molecule": "O=C1/C(=C/c2cccc(Cl)c2)CCc2ccccc21",
    "growth (%)": 87.9
  },
  {
    "molecule": "CN[C@@H]1C(OC2[C@H](O[C@H]3[C@H](O)[C@@H](O)[C@H](N=C(N)N)[C@@H](O)[C@@H]3N=C(N)N)OC(C)[C@]2(O)CO)OC(CO)C(O)C1O (some centres undefined)",
    "growth (%)": 110
  },
  {
    "molecule": "O=C(/C=C/c1cccc(Nc2ccnc3cc(Cl)ccc23)c1)c1ccc(Cl)cc1",
    "growth (%)": 62.6
  },
  {
    "molecule": "CC(C)CC1NC(=O)C(CCCN)NC(=O)C(C(C)C)NC(=O)C2CCCN2C(=O)C(Cc2ccccc2)NC(=O)C(CC(C)C)NC(=O)C(CCCN)NC(=O)C(C(C)C)NC(=O)C2CCCN2C(=O)C(Cc2ccccc2)NC1=O (centres undefined)",
    "growth (%)": -75
  },
  {
    "molecule": "CCCCCCCCCCN1CCC(N2CCCCC2)CC1",
    "growth (%)": -6.35
  },
  {
    "molecule": "COc1cc(/C=C2\\CN(S(=O)(=O)c3ccc(C)cc3)C/C(=C\\c3cc(CN4CCOCC4)c(O)c(OC)c3)C2=O)cc(CN2CCOCC2)c1O",
    "growth (%)": -74.4
  },
  {
    "molecule": "Cc1cc(Br)c(C)cc1Br",
    "growth (%)": 103
  },
  {
    "molecule": "CC(C)=CCNc1ncnc2c1ncn2C1OC(COP(=O)(O)O)C(O)C1O (centres undefined)",
    "growth (%)": 69.6
  }
]

Query (molecule): CC(C)=CCCC(C)c1ccc(C)c2c1OCN(CC1CCNCC1)C2 (centres undefined) ; field requested: growth 38.4

----------
- Test system: SW-620 colon
- experimental protocol: NCI-60 one-dose screen, 48 h
- measurement conditions: 10 µM unless noted
About 83,000 compounds went through this panel and 20% of them were active in at least one assay; those are over-represented in the sample as a whole. Active and inactive are the calls of the source. How the source made its calls: active means growth percent below 10; inactive means the rest.
Hi there, use one of these labels in your reply, thanks! active, inactive

The examples below pair each entry with its known result.
[
  {
    "molecule": "Cn1cc(NC(=O)Nc2cc(C(=O)O)n(C)c2)cc1C(=O)O",
    "assigned class": "inactive"
  },
  {
    "molecule": "CCOC(=O)/C(=C/CC/C(C)=C/CC/C(C)=C/CCc1ccoc1)CC(=O)N1CCCCC1",
    "assigned class": "inactive"
  },
  {
    "molecule": "CC1CN(C2CCCCC2)C(=O)NC1=O (stereo not given)",
    "assigned class": "inactive"
  },
  {
    "molecule": "N#Cc1c(-c2ccc(F)cc2)n2c(nc1=O)SC(=O)C2=O",
    "assigned class": "inactive"
  },
  {
    "molecule": "O=CN1N=C(c2ccc(Nc3ccnc4cc(Cl)ccc34)cc2)CC1c1ccc(Cl)cc1 (stereo not given)",
    "assigned class": "inactive"
  }
]

Fill in: this test's call for C=CCNC(=O)/C(=C/c1cccc([N+](=O)[O-])c1)NC(=O)c1ccccc1 is ___ inactive

Fill in: this test's call for N#CC1c2ccccc2C=CN1C(=O)N(c1ccccc1)c1ccccc1 (stereo not given) is ___ inactive

Fill in: this test's call for COc1ccc(C(=O)/C=C/c2cccc(Nc3ccnc4cc(Cl)ccc34)c2)cc1 is ___ inactive

Fill in: this test's call for Nc1ncnc2c1CN(Cc1ccccc1)CC2 is ___ inactive

Fill in: this test's call for C=C1CCC2C3(C)COC(c4ccccc4)OC3CCC2(C)C1C/C=C1/C(=O)OCC1OC(C)=O (stereo not given) is ___ inactive

----------
- Tested on: NCI-H322M lung
- experimental protocol: NCI-60 one-dose screen, 48 h
- measurement conditions: 10 µM unless noted
This is part of a sample that, as a whole, favours compounds with a hit. Of some 83,000 tested, about 20% had one in any assay. Calls of active or inactive are those of the source. The calls were made as follows: active = growth percent below 10; inactive = the rest.
Hi there, use one of these labels in your reply, thanks! TRUE = active, FALSE = inactive

[
  {
    "compound": "O=C1NC(=O)/C(=C/c2ccc(Cl)cc2Cl)N1",
    "assigned class": "FALSE"
  },
  {
    "compound": "CC(=O)OCC(=O)[C@@]1(O)CC[C@H]2[C@@H]3CCC4=CC(=O)CC[C@]4(C)[C@@]3(F)[C@@H](O)C[C@@]21C",
    "assigned class": "FALSE"
  },
  {
    "compound": "COc1ccc2nc(NC(=O)CN3CCn4c(nnc4C(F)(F)F)C3)sc2c1",
    "assigned class": "FALSE"
  }
]

API: the following record is the query input.
Fill in: this test's call for O=C(Nc1cccc(Cl)c1)Nc1cccc(Cl)c1 is ___ FALSE

----------
- System: SK-MEL-28 melanoma
- experimental protocol: NCI-60 one-dose screen, 48 h (100 = growth as untreated, 0 = no growth, -100 = all killed)
- measurement conditions: 10 µM unless noted
Compounds without any hit were thinned out: in the full panel of roughly 83,000, 20% have a hit. Calls of active or inactive are those of the source. Rule for the calls: active = growth percent below 10; inactive = the rest.
Documented growth across a set of compounds

# example entries with known answers
[
  {
    "compound": "Cc1ccccc1NC(=O)N/C(N)=N/c1nc2ccccc2s1",
    "assay endpoint": "growth",
    "obs value": "54.6% (inactive)"
  },
  {
    "compound": "N#CSCC1CC(O)(c2ccccc2)C(c2ccccc2)C(c2ccc(Cl)cc2)O1 (centres undefined)",
    "assay endpoint": "growth",
    "obs value": "-84% (active)"
  },
  {
    "compound": "NC(=O)NC1(C(=O)O)CCCC1",
    "assay endpoint": "growth",
    "obs value": "122% (inactive)"
  },
  {
    "compound": "COc1cc(-c2n[nH]nc2-c2ccccn2)cc(OC)c1OC",
    "assay endpoint": "growth",
    "obs value": "120% (inactive)"
  }
]

Query (compound): C[C@@H]1CN(c2nc3c(cc2F)c(=O)c(C(=O)O)cn3C(C)(C)C)C[C@H](C)N1 ; field requested: growth 122% (inactive)

Query (compound): CCCn1c(N)c(C(=O)CNc2ccc(I)cc2)c(=O)[nH]c1=O ; field requested: growth 51.7% (inactive)

----------
- System: MDA-MB-435 melanoma
- experimental protocol: NCI-60 one-dose screen, 48 h
- measurement conditions: 10 µM unless noted
- Protocol: Growth inhibition of the MDA-MB-435 human Melanoma tumor cell line is measured as a screen for anti-cancer activity. Cells are grown in 96 well plates and exposed to the test compound for 48 hours. Compounds are tested at a single concentration, which is 10^-5 M for most compounds. The reported endpoint is percent growth (GI% or GIPRCNT), where numbers from 0 - 100% represent growth inhibition, and numbers from -100% - 0 represent cell death. […]
Compounds without any hit were thinned out: in the full panel of roughly 83,000, 20% have a hit. Active and inactive are the calls of the source. Rule for the calls: active = growth percent below 10; inactive = the rest.
Hi there, use one of these labels in your reply, thanks! 1 for active, -1 for inactive

[
  {
    "molecule": "O=C1Nc2ccc(Cl)cc2/C1=C/c1cccs1",
    "test system": "MDA-MB-435 melanoma",
    "assigned class": -1
  }
]

Fill in: this test's call for O=c1[nH]c(SCc2ccccc2)nc2nc(Nc3ccc(NC(=S)Nc4ccccc4)cc3)nc(-c3ccc(O)cc3O)c12 is ___ -1

Fill in: this test's call for CC(NC(N)=S)c1ccccc1 (stereo not drawn) is ___ -1

Fill in: this test's call for N#Cc1ccc(-c2csc(Nc3ccc4nc5n(c(=O)c4c3)CCC5)n2)cc1 is ___ -1

Fill in: this test's call for COc1cc(/C=C/C(=O)CC(=O)/C=C/c2ccc(OC(=O)C3C4CC5CC(C4)CC3C5)c(OC)c2)ccc1OC(=O)C1C2CC3CC(C2)CC1C3 (stereo not drawn) is ___ -1

Fill in: this test's call for CCOC(=O)c1cc2oc(/C=C/c3cc(=O)c4cc(Cl)ccc4o3)cc2[nH]1 is ___ -1

Fill in: this test's call for COc1cc(/C=N/NC(=O)c2ccc(C(F)(F)F)nc2Nc2cc(Cl)ccc2C)cc(OC)c1OC is ___ -1

Fill in: this test's call for CC(=O)Nc1c(Cl)cc2c(c1Cl)Cc1ccccc1-2 is ___ -1

----------
Documented growth across a set of molecules
- System: KM12 colon
- experimental protocol: NCI-60 one-dose screen, 48 h (100 = growth as untreated, 0 = no growth, -100 = all killed)
- measurement conditions: 10 µM unless noted
About 83,000 compounds went through this panel and 20% of them were active in at least one assay; those are over-represented in the sample as a whole.
Just the number please, in %, no unit attached.

[
  {
    "molecule": "O=C(Nc1ccc2c(c1)C(=O)c1ccccc1-2)c1ccccc1",
    "growth [%]": 87.3
  },
  {
    "molecule": "O=C(CSc1nnc(-c2cc(-c3ccccc3)nc3ccccc23)o1)c1ccc(Br)cc1",
    "growth [%]": 107
  }
]

# ---- query molecule ----
Which measured growth belongs to COc1cc(/C=C/c2cc(/C=C/c3ccc(O)c(OC)c3)n(C(=O)Cc3ccccc3)n2)ccc1O , tested on KM12 colon? 9.39
